Hey, just so you know, these numbers are from PubChem BioAssay (NCI).

# Test system: LOX IMVI melanoma
# assay.info: NCI tumour cell line growth inhibition, 48 h
Exercise: for every item that follows, state its recorded GI50.

Example results:
[[record]]
molecule = "O=C1CSC(c2ccccc2O)N1c1nnc(Cn2ccnc2)o1 (stereo unspecified)"
target_under_test = "LOX IMVI melanoma"
experimental_result = "6.58 µM"

[[record]]
molecule = "Cc1c2ccncc2c(C)c2c1c1cc(CO)ccc1n2C"
target_under_test = "LOX IMVI melanoma"
experimental_result = "0.449 µM"

[[record]]
molecule = "Nc1n[nH]c2ccc([C@@H]3Nc4cc5[nH]ncc5cc4[C@H]4C5CCC(C5)[C@@H]34)cc12 (stereo partly specified)"
target_under_test = "LOX IMVI melanoma"
experimental_result = "0.659 µM"


The following molecules each have a reported value; give each one's GI50.
1. CC(=O)OC(C)C(OC(C)=O)C(OC(C)=O)C(/C=C/C1CC=CC(=O)O1)OC(C)=O (stereo unspecified)
2. O=c1c(-c2ccccc2)coc2cc(OC/C(=N/O)c3ccc(F)cc3)ccc12
3. NS(=O)(=O)c1cccc(-c2ccc3c(NC(=O)C4CC4)n[nH]c3c2)c1

Marked response:
29.1 µM
44.1 µM
19.4 µM
